measurement-target: T1, human TMEM106B (human, UniProt Q9NUM4 2-274)
T1 construct: full-length, transiently expressed on HEK293 cells, or natively expressed on HeLa, U251 and A549 cells (the cell is named under assay); also the source of the Pepscan peptides; also called huTMEM106B; huTMEM
assay-comment: FACS HEK+huTMEM 1.0 ug/ml;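 note: binding of purified mouse IgG antibodies to HEK293 cells transiently expressing human TMEM106B, read by flow cytometry as median fluorescence intensity of live, propidium iodide-negative cells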
Recorded MFI determines the group label, using group 1 (below 4000 MFI), group 2 (4000 MFI to below 60000 MFI), group 3 (60000 MFI or more)

Some solved entries appear below for comparison.
TM-25 (antibody, V domains shown) VH: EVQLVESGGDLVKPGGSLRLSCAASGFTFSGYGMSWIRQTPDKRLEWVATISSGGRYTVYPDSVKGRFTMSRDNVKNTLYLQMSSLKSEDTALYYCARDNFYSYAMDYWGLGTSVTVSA VL: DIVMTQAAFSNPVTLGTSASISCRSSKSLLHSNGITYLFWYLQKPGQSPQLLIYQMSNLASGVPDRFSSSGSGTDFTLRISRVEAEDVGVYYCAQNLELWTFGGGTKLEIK ... group 3
TM-33 (antibody, V domains shown, mouse IgG (hybridoma)) VH: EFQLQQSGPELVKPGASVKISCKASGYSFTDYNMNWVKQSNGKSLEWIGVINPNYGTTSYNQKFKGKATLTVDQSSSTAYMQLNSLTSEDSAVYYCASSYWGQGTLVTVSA VL: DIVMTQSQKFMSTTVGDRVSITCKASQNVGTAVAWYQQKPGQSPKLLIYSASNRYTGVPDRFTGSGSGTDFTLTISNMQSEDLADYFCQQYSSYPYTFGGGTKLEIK ... group 2

Record TM-14 (antibody, V domains shown, mouse IgG (hybridoma)) VH: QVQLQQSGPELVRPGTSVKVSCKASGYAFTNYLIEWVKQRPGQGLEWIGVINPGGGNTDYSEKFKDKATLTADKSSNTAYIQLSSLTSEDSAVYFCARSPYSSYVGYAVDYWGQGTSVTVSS VL: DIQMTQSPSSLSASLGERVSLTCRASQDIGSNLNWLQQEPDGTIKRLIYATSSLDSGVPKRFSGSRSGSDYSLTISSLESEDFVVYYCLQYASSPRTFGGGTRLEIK — which class?
group 1

Record TM-15 (antibody, V domains shown, mouse IgG (hybridoma)) VH: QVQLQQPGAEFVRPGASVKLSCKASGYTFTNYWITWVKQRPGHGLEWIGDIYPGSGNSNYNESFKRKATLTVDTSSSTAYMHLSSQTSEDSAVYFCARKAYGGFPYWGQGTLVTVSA VL: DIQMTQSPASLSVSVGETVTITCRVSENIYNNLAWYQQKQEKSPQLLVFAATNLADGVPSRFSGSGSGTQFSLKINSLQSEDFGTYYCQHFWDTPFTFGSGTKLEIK — which class?
group 2

Record TM-27 (antibody, V domains shown) VH: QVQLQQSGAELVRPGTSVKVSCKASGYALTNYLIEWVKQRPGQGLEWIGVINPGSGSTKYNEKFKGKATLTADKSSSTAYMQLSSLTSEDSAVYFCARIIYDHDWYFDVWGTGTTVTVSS VL: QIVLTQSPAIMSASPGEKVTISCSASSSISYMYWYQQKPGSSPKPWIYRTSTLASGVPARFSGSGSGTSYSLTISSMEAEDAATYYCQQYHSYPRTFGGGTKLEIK — which class?
group 1

Record TM-31 (antibody, V domains shown, mouse IgG (hybridoma)) VH: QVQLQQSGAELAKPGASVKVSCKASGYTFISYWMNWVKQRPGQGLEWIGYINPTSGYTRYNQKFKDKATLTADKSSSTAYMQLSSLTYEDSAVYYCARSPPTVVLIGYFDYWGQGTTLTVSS VL: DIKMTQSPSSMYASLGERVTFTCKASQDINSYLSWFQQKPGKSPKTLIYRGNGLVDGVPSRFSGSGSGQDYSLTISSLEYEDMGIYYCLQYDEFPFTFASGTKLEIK — which class?
group 1

Record TM-28 (antibody, V domains shown) VH: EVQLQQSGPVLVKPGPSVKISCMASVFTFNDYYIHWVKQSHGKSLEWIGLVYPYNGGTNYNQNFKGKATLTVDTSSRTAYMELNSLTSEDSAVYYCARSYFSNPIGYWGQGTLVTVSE VL: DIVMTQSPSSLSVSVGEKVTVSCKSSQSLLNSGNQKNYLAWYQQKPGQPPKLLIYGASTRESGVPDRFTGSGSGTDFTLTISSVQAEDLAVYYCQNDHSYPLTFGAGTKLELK — which class?
group 3

Record TM-45 (antibody, V domains shown) VH: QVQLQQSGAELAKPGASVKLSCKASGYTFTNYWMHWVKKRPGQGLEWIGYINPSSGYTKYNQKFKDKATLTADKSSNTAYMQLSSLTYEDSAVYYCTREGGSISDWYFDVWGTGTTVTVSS VL: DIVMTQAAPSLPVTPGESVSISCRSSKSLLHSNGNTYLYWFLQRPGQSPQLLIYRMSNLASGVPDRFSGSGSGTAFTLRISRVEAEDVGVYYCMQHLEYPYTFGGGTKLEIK — which class?
group 2

Record TM-30 (antibody, V domains shown, mouse IgG (hybridoma)) VH: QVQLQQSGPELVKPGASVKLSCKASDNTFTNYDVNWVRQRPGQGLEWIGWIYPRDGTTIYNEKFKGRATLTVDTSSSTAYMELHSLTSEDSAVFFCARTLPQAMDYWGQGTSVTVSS VL: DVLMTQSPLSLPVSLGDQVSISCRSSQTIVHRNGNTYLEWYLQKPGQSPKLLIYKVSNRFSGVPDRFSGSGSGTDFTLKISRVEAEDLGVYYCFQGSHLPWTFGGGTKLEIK — which class?
group 3

Record TM-16 (antibody, V domains shown) VH: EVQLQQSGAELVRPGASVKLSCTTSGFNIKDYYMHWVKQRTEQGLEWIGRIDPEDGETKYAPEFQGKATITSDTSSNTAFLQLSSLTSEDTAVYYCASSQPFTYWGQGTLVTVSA VL: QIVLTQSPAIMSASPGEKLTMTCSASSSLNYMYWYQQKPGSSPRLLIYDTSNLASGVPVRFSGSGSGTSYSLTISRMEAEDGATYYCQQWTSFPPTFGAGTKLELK — which class?
group 1
